Data credit: patent US5140014A

Exercise: for every item that follows, state its recorded MIC.
- System: Haemophilus Influenzae
- assay_procedure: in vitro antibacterial activity, agar dilution method (MIC)
- Type: cell-based
- conditions: Haemophilus influenzae, strain 632A; BHI agar, 20-24 hours; read-out: MIC
Answers are plain numbers, in µg/mL.

Some molecules with known MIC results, for comparison:
molecule | MIC [µg/mL]
CCC1OC(=O)CC(O)C(C)C(OC2OC(C)CC(N(C)C)C2O)C(CC=O)CC(C)C(N(C)C)CCC(C)=CC1COC(C)=O (stereo not shown) | 2
CCC1OC(=O)CC(O)C(C)C(OC2OC(C)C(O)C(N(C)C)C2O)C(CC=O)CC(C)C(N(C)C)CCC(C)=CC1COC(C)=O (stereo not shown) | 8
CCC1OC(=O)CC(O)C(C)C(OC2OC(C)CC(N(C)C)C2O)C(CC=O)CC(C)C(N(C)C)C=CC(C)=CC1COC(C)=O (stereo not shown) | 2

Kindly review the next molecule as well.
Query: Returns the measured MIC for the input molecule. Input: CCC1OC(=O)CC(O)C(C)C(OC2OC(C)CC(N(C)C)C2O)C(CC=O)CC(C)C(N(C)C)CCC2(C)OC2C1C (stereo not shown)
Reply: 2
